Reported pKd values for a set of molecules
molecular target: recombinant human tau Tau-441(P301L) (Homo sapiens, UniProt P10636, P618L); construct: biotin (chemical label, NHS-PEG4); test: Bio-layer interferometry (BLI) biosensor assay, tau P301L; conditions: BLI steady-state analysis, immobilized biotinylated tau; Figure 1—figure supplement 1B
Sequence (P10636 1-441 isoform P10636-8 P301L): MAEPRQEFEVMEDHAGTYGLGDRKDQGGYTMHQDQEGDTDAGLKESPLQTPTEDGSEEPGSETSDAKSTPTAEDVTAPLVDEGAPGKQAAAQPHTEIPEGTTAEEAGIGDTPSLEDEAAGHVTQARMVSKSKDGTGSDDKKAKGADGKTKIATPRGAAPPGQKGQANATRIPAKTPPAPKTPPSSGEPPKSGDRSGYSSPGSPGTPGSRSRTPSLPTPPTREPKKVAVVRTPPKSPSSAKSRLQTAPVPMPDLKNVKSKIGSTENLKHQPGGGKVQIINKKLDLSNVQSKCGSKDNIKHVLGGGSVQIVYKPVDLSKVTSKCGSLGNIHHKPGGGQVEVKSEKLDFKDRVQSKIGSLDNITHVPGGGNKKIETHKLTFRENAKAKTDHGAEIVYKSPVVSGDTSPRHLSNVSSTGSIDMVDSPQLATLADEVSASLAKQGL
// field semantics: pKd = negative decimal log of concentration (mol/L)

O=C(CCc1ccc2c(c1)[nH]c1ccncc12)NCCOCCOCCNc1cccc2c1C(=O)N(C1CCC(=O)NC1=O)C2=O (centres unmarked) :: 5.60

We now examine a further molecule.
Q: Name the reported pKd value associated with the molecule COc1cc(OCc2ccccn2)ccc1/C=C/c1cc(/C=C/c2ccc3cc[nH]c3c2)n[nH]1 [PE859, reference compound]
Result: 5.06

* * *

biological target: recombinant human tau Tau-441(WT) (Homo sapiens); construct: biotin (chemical label, NHS-PEG4); assay: Bio-layer interferometry (BLI) biosensor assay, tau WT; conditions: BLI steady-state analysis, immobilized biotinylated tau; Figure 1—figure supplement 1B
Sequence (P10636 1-441 isoform P10636-8): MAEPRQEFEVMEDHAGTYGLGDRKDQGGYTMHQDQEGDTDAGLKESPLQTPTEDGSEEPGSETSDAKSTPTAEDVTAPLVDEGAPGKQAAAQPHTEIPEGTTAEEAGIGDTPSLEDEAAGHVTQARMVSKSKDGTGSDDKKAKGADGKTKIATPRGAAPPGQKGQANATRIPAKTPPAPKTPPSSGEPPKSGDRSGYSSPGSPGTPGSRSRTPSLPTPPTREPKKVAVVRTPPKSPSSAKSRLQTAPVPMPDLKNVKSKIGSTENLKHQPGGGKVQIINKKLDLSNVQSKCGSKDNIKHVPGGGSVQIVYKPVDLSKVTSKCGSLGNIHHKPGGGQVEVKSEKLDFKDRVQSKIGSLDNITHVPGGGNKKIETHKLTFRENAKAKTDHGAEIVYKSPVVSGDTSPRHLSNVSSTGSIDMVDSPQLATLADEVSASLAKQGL
Metric Name: Kd (µM)
Give just the number in µM; leave the unit off.

COc1cc(OCc2ccccn2)ccc1/C=C/c1cc(/C=C/c2ccc3cc[nH]c3c2)n[nH]1 [PE859, reference compound] :: 22

Now for the compound whose Kd we want.
Q: Find the measured Kd: item O=C(CCc1ccc2c(c1)[nH]c1ccncc12)NCCOCCOCCNc1cccc2c1C(=O)N(C1CCC(=O)NC1=O)C2=O (centres unmarked) [QC-01–175] , target or system recombinant human tau Tau-441(WT) (Homo sapiens).
Result: 1.2
